- System: human whole blood TNFα release
- Procedure details: LPS-stimulation of human whole blood, TNF-α release (ELISA)
- Type: cell-based
- Settings: LPS-stimulated human whole blood, IC50 range; read-out: Inhibitor activity versus human whole blood TNFα release

| Sample smiles | IC50 |
| --- | --- |
| CC(C)(NCCc1ccc(-n2c(N)c(C(=O)c3ccc(F)cc3F)ccc2=O)cc1)C(=O)OC1Cc2ccccc2C1 | > 1000 nM |
| CC(C)(C)OC(=O)C(C)(C)NCCCOc1cc(F)c(-n2c(N)c(C(=O)c3ccc(F)cc3F)ccc2=O)c(F)c1 | > 1000 nM |
| CC(C)(NCCc1cc(F)c(-n2c(N)c(C(=O)c3ccc(F)cc3F)ccc2=O)c(F)c1)C(=O)OC1CCCC1 | < 100 nM |
| CC(C)(NC(=O)Cc1ccc(-n2c(N)c(C(=O)c3ccc(F)cc3F)ccc2=O)cc1)C(=O)OC1CCCC1 | > 1000 nM |

====

Parameter IC50, tested on p38 MAP Kinase a (Homo sapiens, UniProt Q16539), listed per item.
Sequence (Q16539 whole entry): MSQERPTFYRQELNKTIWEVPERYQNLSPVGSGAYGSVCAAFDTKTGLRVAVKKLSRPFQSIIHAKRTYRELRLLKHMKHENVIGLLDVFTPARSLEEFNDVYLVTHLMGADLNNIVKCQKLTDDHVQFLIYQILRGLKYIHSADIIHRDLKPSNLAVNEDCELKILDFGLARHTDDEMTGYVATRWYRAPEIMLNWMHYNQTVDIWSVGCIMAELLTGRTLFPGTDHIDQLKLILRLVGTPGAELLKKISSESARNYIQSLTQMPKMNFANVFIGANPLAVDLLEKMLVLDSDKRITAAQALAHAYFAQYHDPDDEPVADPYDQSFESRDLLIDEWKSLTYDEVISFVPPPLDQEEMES
Measurement name: IC50

| Compound | Reported measurement |
| --- | --- |
| Nc1c(C(=O)c2ccc(F)cc2F)ccc(=O)n1-c1ccc(CCNC2(C(=O)OC3CCCC3)CCCC2)cc1 [Example 4] | < 100 nM |
| CC[C@](C)(NCCc1ccc(-n2c(N)c(C(=O)c3ccc(F)cc3F)ccc2=O)cc1)C(=O)OC1CCCC1 [Example 5] | 100 to 1000 nM |
| CC(C)(NCCc1ccc(-n2c(N)c(C(=O)c3ccc(F)cc3F)ccc2=O)cc1)C(=O)OC1CCCC1 [Example 1] | < 100 nM |
| CC[C@](C)(NCCc1ccc(-n2c(N)c(C(=O)c3ccc(F)cc3F)ccc2=O)cc1)C(=O)O [Example 14] | < 100 nM |
| CC(C)(NCCCOc1cc(F)c(-n2c(N)c(C(=O)c3ccc(F)cc3F)ccc2=O)c(F)c1)C(=O)OC1CCCC1 [Example 9] | < 100 nM |
| CC(C)(NCCc1cc(F)c(-n2c(N)c(C(=O)c3ccc(F)cc3F)ccc2=O)c(F)c1)C(=O)O [Example 12] | < 100 nM |
| CC(C)(NCCc1ccc(-n2c(N)c(C(=O)c3ccc(F)cc3F)ccc2=O)cc1)C(=O)OC1Cc2ccccc2C1 [Example 7] | 100 to 1000 nM |
| CC[C@](C)(NCCc1ccc(-n2c(N)c(C(=O)c3ccc(F)cc3F)ccc2=O)cc1)C(=O)OC(C)(C)C [Example 6] | 100 to 1000 nM |

====

- Test system: phosphorylation of MAPKAP-2 in U937 cells
- Procedure details: p38 MAP kinase cellular assay: inhibition of phosphorylation of MAPKAP-2 in U937 cells
- Assay type: cell-based
- Settings: Homo sapiens, U-937; Table 2; U937 cells; read-out: Inhibition of phosphorylation of MAPKAP-2 in U937 cells (IC50)
Catalogue of IC50 values

| Compound | IC50 (µM) |
| --- | --- |
| Nc1c(C(=O)c2ccc(F)cc2F)ccc(=O)n1-c1ccccc1 [Parent Compound I, reference compound] | 0.3 |
| CC(C)(NCCc1ccc(-n2c(N)c(C(=O)c3ccc(F)cc3F)ccc2=O)cc1)C(=O)OC1CCCC1 | 0.01 |

====

Catalogue of IC50 values
- Test system: human whole blood TNFα release
- Procedure details: LPS-stimulation of human whole blood, TNF-α release (ELISA)
- Assay type: cell-based
- Settings: LPS-stimulated human whole blood, IC50 range; read-out: Inhibitor activity versus human whole blood TNFα release
Measurement name: IC50

| Compound | Reported measurement |
| --- | --- |
| CC(C)(NCCCOc1cc(F)c(-n2c(N)c(C(=O)c3ccc(F)cc3F)ccc2=O)c(F)c1)C(=O)OC1CCCC1 | 0.1 to 1 µM |
| CC(C)(NCCc1ccc(-n2c(N)c(C(=O)c3ccc(F)cc3F)ccc2=O)cc1)C(=O)OC1CC2CCC1C2 (centres unmarked) | > 1 µM |
| Nc1c(C(=O)c2ccc(F)cc2F)ccc(=O)n1-c1ccc(CCNC2(C(=O)OC3CCCC3)CCCC2)cc1 | > 1 µM |
| CC(C)(NCCc1ccc(-n2c(N)c(C(=O)c3ccc(F)cc3F)ccc2=O)cc1)C(=O)OC1CCCC1 | 0.1 to 1 µM |
| CC[C@](C)(NCCc1ccc(-n2c(N)c(C(=O)c3ccc(F)cc3F)ccc2=O)cc1)C(=O)OC1CCCC1 | > 1 µM |
